Biological target: full length SGK1 (Homo sapiens)
Construct: 125 μM full length SGK1 (Life Technologies Part #PR7358A); purchased Life Technologies PR7358A
Sequence (O00141 whole entry): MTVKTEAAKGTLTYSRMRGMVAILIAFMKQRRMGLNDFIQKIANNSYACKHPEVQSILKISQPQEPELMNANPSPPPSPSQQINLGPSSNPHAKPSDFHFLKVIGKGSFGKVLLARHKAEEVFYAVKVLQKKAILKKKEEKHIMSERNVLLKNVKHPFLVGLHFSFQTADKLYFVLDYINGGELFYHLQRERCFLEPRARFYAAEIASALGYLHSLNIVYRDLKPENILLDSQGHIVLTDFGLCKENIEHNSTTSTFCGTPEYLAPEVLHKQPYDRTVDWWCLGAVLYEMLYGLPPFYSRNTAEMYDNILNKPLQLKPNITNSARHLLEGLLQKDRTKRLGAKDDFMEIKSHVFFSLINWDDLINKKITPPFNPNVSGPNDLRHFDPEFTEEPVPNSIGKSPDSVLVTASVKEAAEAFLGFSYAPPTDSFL
Test: SGK1 inhibition Assay A (Caliper LabChip electrophoretic separation of fluorescent peptide substrate and phosphorylated product)
Assay type: biochemical
Conditions: Assay A; 20 μM ATP, 40 min incubation; read-out: SGK1 IC50
Where a name gives a salt, the structure may show the parent alone.
measured.quantity: pIC50
The quantity pIC50 is defined as the negative base-10 logarithm of the molar concentration.

Example entries and their recorded answers appear below.
- compound: "N#Cc1ncc(-c2cc(N3CCC[C@@H](NC(=O)c4ccc(C(F)F)s4)C3)c3c(N)ncnn23)cc1F"
  pIC50: 6.93
- compound: "CS(=O)(=O)c1ccc(-c2cc(N3CC[C@H](F)[C@@H](NC(=O)c4ccc(Cl)s4)C3)c3c(N)ncnn23)cc1 (relative stereo) [Example 144, TFA]"
  pIC50: 7.62

Query compound follows.
Query string: Recorded pIC50 of "Cc1cc(C(=O)N[C@@H]2CCCN(c3cc(C4=CCN(S(C)(=O)=O)C4)n4ncnc(N)c34)C2)ccn1" , please.
Result string: 7.92
